Values were extracted from patent US20260250371A1.

The reader will find reported Ratio (variant antibody KD/burosumab KD) values listed item by item below.
TESTED_ON: T1, recombinant human FGF23 (R179Q) (human, UniProt Q9GZV9 25-251)
T1 construct: also called rhFGF23(R179Q); hFGF23(R179Q)
T1 sequence (looked up): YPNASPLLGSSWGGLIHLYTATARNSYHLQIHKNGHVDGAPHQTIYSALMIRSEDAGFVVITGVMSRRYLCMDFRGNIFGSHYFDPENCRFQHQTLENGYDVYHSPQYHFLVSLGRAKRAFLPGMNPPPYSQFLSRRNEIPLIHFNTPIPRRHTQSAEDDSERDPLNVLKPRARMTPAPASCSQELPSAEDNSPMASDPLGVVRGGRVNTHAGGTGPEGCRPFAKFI
MEASUREMENT_PROTOCOL: SPR, antibody captured on hIgG chip, rhFGF23(R179Q) analyte

{"BINDER": "UGX188 (antibody, human IgG1, kappa, V domains shown, also called HC:S57E, HC:S59D) VH: QVQLVQSGAEVKKPGASVKVSCKASGYTFTNHYMHWVRQAPGQGLEWMGIINPISGETDNAQKFQGRVTMTRDTSTSTVYMELSSLRSEDTAVYYCARDIVDAFDFWGQGTMVTVSS VL: AIQLTQSPSSLSASVGDRVTITCRASQGISSALVWYQQKPGKAPKLLIYDASSLESGVPSRFSGSGSGTDFTLTISSLQPEDFATYYCQQFNDYFTFGPGTKVDIKR", "Ratio (variant antibody KD/burosumab KD)": 1}
{"BINDER": "UGX153 (antibody, human IgG1, kappa, V domains shown, also called HC:N31R) VH: QVQLVQSGAEVKKPGASVKVSCKASGYTFTRHYMHWVRQAPGQGLEWMGIINPISGSTSNAQKFQGRVTMTRDTSTSTVYMELSSLRSEDTAVYYCARDIVDAFDFWGQGTMVTVSS VL: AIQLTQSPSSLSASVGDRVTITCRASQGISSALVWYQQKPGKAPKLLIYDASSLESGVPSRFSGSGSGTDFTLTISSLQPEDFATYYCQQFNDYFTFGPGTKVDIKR", "Ratio (variant antibody KD/burosumab KD)": 0}
{"BINDER": "UGX192 (antibody, human IgG1, kappa, V domains shown, also called HC:N52F, HC:V101I) VH: QVQLVQSGAEVKKPGASVKVSCKASGYTFTNHYMHWVRQAPGQGLEWMGIIFPISGSTSNAQKFQGRVTMTRDTSTSTVYMELSSLRSEDTAVYYCARDIIDAFDFWGQGTMVTVSS VL: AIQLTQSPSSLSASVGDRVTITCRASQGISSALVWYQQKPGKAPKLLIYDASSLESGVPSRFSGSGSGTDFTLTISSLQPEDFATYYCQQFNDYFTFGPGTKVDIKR", "Ratio (variant antibody KD/burosumab KD)": 0}
{"BINDER": "UGX146 (antibody, human IgG1, kappa, V domains shown, also called LC:Y94F) VH: QVQLVQSGAEVKKPGASVKVSCKASGYTFTNHYMHWVRQAPGQGLEWMGIINPISGSTSNAQKFQGRVTMTRDTSTSTVYMELSSLRSEDTAVYYCARDIVDAFDFWGQGTMVTVSS VL: AIQLTQSPSSLSASVGDRVTITCRASQGISSALVWYQQKPGKAPKLLIYDASSLESGVPSRFSGSGSGTDFTLTISSLQPEDFATYYCQQFNDFFTFGPGTKVDIKR", "Ratio (variant antibody KD/burosumab KD)": 1}

Ratio (variant antibody KD/burosumab KD) reported for this binder UGX126 (antibody, human IgG1, kappa, V domains shown, also called LC:S52D; S52D) VH: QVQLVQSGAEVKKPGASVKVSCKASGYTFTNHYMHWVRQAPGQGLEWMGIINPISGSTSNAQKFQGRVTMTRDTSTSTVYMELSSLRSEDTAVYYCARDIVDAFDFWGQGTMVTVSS VL: AIQLTQSPSSLSASVGDRVTITCRASQGISSALVWYQQKPGKAPKLLIYDADSLESGVPSRFSGSGSGTDFTLTISSLQPEDFATYYCQQFNDYFTFGPGTKVDIKR : 2

Ratio (variant antibody KD/burosumab KD) reported for this binder UGX202 (antibody, human IgG1, kappa, V domains shown, also called HC:S59E, LC:N92Y; S59E/N92Y) VH: QVQLVQSGAEVKKPGASVKVSCKASGYTFTNHYMHWVRQAPGQGLEWMGIINPISGSTENAQKFQGRVTMTRDTSTSTVYMELSSLRSEDTAVYYCARDIVDAFDFWGQGTMVTVSS VL: AIQLTQSPSSLSASVGDRVTITCRASQGISSALVWYQQKPGKAPKLLIYDASSLESGVPSRFSGSGSGTDFTLTISSLQPEDFATYYCQQFYDYFTFGPGTKVDIKR : 3

Ratio (variant antibody KD/burosumab KD) reported for this binder UGX131 (antibody, human IgG1, kappa, V domains shown, also called LC:S53F) VH: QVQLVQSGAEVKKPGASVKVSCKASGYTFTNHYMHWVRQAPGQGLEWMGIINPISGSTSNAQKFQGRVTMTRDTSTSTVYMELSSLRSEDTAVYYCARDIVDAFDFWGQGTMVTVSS VL: AIQLTQSPSSLSASVGDRVTITCRASQGISSALVWYQQKPGKAPKLLIYDASFLESGVPSRFSGSGSGTDFTLTISSLQPEDFATYYCQQFNDYFTFGPGTKVDIKR : 1

Ratio (variant antibody KD/burosumab KD) reported for this binder UGX151 (antibody, human IgG1, kappa, V domains shown, also called HC:N31F) VH: QVQLVQSGAEVKKPGASVKVSCKASGYTFTFHYMHWVRQAPGQGLEWMGIINPISGSTSNAQKFQGRVTMTRDTSTSTVYMELSSLRSEDTAVYYCARDIVDAFDFWGQGTMVTVSS VL: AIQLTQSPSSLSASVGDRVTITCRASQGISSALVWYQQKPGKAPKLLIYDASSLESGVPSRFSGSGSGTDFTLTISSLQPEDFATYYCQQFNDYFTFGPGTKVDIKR : 1

Ratio (variant antibody KD/burosumab KD) reported for this binder UGX164 (antibody, human IgG1, kappa, V domains shown, also called HC:S59T) VH: QVQLVQSGAEVKKPGASVKVSCKASGYTFTNHYMHWVRQAPGQGLEWMGIINPISGSTTNAQKFQGRVTMTRDTSTSTVYMELSSLRSEDTAVYYCARDIVDAFDFWGQGTMVTVSS VL: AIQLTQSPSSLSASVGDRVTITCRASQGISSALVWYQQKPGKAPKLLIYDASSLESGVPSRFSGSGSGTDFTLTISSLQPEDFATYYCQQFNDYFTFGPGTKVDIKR : 1

Ratio (variant antibody KD/burosumab KD) reported for this binder UGX182 (antibody, human IgG1, kappa, V domains shown, also called HC:S59D, HC:V101I; S59D/V101I) VH: QVQLVQSGAEVKKPGASVKVSCKASGYTFTNHYMHWVRQAPGQGLEWMGIINPISGSTDNAQKFQGRVTMTRDTSTSTVYMELSSLRSEDTAVYYCARDIIDAFDFWGQGTMVTVSS VL: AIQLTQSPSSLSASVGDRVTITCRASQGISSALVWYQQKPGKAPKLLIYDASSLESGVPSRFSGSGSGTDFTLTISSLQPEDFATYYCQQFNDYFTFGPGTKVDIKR : 2
